Entries and their measured normalized RNA/DNA level without ligand (log10) follow.
B1: library; a variant is named by its letters at N, in order (parent)
chain: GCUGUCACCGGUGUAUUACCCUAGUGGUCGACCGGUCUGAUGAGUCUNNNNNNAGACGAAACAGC

Variants of: B1
Assay: normalized RNA/DNA level without ligand (relative to sTRSVctl = 100) (log10 (% of sTRSVctl)); ligand: hypoxanthine (xanthine aptamer); higher = less ribozyme self-cleavage, higher mRNA level
Conditions: HEK293T, reporter: mCherry (pCS4076), ligand present: no
// no unit, no text: just the number

Illustrative cases are given below, each with its answer.
GCUGUCACCGGUGUAUUACCCUAGUGGUCGACCGGUCUGAUGAGUCUACACUGAGACGAAACAGC [ACACUG] : 1.42
GCUGUCACCGGUGUAUUACCCUAGUGGUCGACCGGUCUGAUGAGUCUACGUCAAGACGAAACAGC [ACGUCA] : 1.64
GCUGUCACCGGUGUAUUACCCUAGUGGUCGACCGGUCUGAUGAGUCUAACCCUAGACGAAACAGC [AACCCU] : 1.89

In: Reported normalized RNA/DNA level without ligand (log10), variant GCUGUCACCGGUGUAUUACCCUAGUGGUCGACCGGUCUGAUGAGUCUGAGAGGAGACGAAACAGC [GAGAGG] : ____
Out: 1.01

In: Reported normalized RNA/DNA level without ligand (log10), variant GCUGUCACCGGUGUAUUACCCUAGUGGUCGACCGGUCUGAUGAGUCUUGGCACAGACGAAACAGC [UGGCAC] : ____
Out: 1.91

In: Reported normalized RNA/DNA level without ligand (log10), variant GCUGUCACCGGUGUAUUACCCUAGUGGUCGACCGGUCUGAUGAGUCUACAACCAGACGAAACAGC [ACAACC] : ____
Out: 1.91

In: Reported normalized RNA/DNA level without ligand (log10), variant GCUGUCACCGGUGUAUUACCCUAGUGGUCGACCGGUCUGAUGAGUCUGAAAAAAGACGAAACAGC [GAAAAA] : ____
Out: 1.8

Each recorded value in this set is attributed to the supplement of paper PMC6757056.
